system: noninfected PBMC; test: Toxic effect on noninfected cells (formazan formation), PBMC; details: at least 50% inhibition of formazan formation, 5 days
Readout Kind: CD50 (M)

{"columns": ["Molecule", "System", "Readout Kind", "Quantitative Result"],
 "data": [
  ["Cc1cn([C@H]2C[C@H](N=[N+]=[N-])[C@@H](CO)O2)c(=O)[nH]c1=O [AZT, reference compound]", "noninfected PBMC", "CD50", "8e-05"],
  ["Nc1ccn([C@H]2CC[C@@H](CO)O2)c(=O)n1 [DDC, reference compound]", "noninfected PBMC", "CD50", "2.5e-05"]
]}

Values compiled from patent US7439351B2.
